Data origin: patent US20050003397A1

target: BAT monoclonal antibody; test: competition phage ELISA; BAT (6 µg/ml) pre-incubated with increasing synthetic Peptide A, binding to immobilized Peptide A phage read
Recorded metric: pIC50
Convention used: pIC50 is expressed as -log10 of the molar concentration.

What pIC50 value was documented for this binder, PRRIKPRKIMLQ [Peptide A (synthetic peptide of SEQ ID NO 1)] ?
6.18
